B1: TPR 5TU (parent)
chain: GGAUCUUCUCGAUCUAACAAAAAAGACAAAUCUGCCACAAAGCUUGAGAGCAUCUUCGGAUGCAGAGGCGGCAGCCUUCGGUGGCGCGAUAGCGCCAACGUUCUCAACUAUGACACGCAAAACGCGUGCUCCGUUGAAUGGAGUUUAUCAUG

# Variants of: B1
# measurementDescription: polymerase ribozyme fitness, log enrichment relative to wild type (log ratio); higher = more active; in vitro selection for triplet polymerase activity
Variants at the floor of the assay were thinned out.
Classify as follows. Reported polymerase ribozyme fitness (log ratio) greater than or equal to -3: T. Reported polymerase ribozyme fitness (log ratio) below: F.

Field: example entries. Status: answers known.
A29G A49C G67A C114U U127G : F
A16U A19U A39U U61A A113G G128A G141C : F
G74A G80A C85A G92A C125A G136C A138G : F
A40C A41C G59A G70U G84A C85A C105G G141C G143U : F
U9C A28U A30C U61A G88A A91U G92A A119U : F

Query string: Given the entry A20U A41U U55A A66U G84A C116A , answer whether its polymerase ribozyme fitness (log ratio) meets or surpasses -3.
Result string: F

Query string: Given the entry C38A C85G G86U , answer whether its polymerase ribozyme fitness (log ratio) meets or surpasses -3.
Result string: F

Query string: Given the entry A40C G84A U90G G100C , answer whether its polymerase ribozyme fitness (log ratio) meets or surpasses -3.
Result string: F

Query string: Given the entry U7G A64G C87A C105A U144G , answer whether its polymerase ribozyme fitness (log ratio) meets or surpasses -3.
Result string: F
